- tested target: chABCD1 (chimeric ABCD1) (Homo sapiens, UniProt P33897, DEL694-745)
- Construct: single polypeptide: N-terminal FLAG tag, PMP-4 residues 1-65 replacing human ABCD1 residues 1-63, then human ABCD1 64-745; HEK293F; homodimer; LMNG/CHS for assays, digitonin for cryo-EM; with PMP-4 (peroxisomal membrane protein related, ABCD1 homolog, Caenorhabditis elegans; N-terminal segment fused to the target chain)
- Sequence (P33897 64-693): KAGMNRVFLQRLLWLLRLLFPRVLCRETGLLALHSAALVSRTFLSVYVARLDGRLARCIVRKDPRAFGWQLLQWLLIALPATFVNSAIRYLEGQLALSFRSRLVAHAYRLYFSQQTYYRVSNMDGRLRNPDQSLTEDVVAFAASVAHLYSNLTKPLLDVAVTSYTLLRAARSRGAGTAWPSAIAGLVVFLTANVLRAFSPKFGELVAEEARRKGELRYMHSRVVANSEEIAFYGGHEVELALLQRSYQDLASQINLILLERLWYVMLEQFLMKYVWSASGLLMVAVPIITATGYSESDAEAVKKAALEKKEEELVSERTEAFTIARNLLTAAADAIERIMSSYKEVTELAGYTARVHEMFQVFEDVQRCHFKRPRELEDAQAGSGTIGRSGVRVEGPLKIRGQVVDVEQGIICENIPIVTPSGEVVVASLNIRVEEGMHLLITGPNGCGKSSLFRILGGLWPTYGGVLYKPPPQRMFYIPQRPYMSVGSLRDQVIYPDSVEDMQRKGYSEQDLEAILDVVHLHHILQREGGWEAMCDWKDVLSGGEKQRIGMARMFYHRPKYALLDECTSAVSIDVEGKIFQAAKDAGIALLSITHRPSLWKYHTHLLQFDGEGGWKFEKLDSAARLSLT
- assay overview: substrate-stimulated ATPase assay (colorimetric Pi release)
pEC50: −log10 of the molar value.
measured property: pEC50

Returns the measured pEC50 for the input compound. Input: CCCCCCCCCCCCCCCCCCCCCC(=O)SCCNC(=O)CCNC(=O)[C@H](O)C(C)(C)COP(=O)(O)OP(=O)(O)OC[C@H]1O[C@@H](n2cnc3c(N)ncnc32)[C@H](O)[C@@H]1OP(=O)(O)O
~5.40
